- Target or test system: EGFR L858R/T790M (Homo sapiens, UniProt P00533, L858R/T790M)
- Construct: purchased Carna Bio
- Sequence (P00533 25-1210 T790M/L858R): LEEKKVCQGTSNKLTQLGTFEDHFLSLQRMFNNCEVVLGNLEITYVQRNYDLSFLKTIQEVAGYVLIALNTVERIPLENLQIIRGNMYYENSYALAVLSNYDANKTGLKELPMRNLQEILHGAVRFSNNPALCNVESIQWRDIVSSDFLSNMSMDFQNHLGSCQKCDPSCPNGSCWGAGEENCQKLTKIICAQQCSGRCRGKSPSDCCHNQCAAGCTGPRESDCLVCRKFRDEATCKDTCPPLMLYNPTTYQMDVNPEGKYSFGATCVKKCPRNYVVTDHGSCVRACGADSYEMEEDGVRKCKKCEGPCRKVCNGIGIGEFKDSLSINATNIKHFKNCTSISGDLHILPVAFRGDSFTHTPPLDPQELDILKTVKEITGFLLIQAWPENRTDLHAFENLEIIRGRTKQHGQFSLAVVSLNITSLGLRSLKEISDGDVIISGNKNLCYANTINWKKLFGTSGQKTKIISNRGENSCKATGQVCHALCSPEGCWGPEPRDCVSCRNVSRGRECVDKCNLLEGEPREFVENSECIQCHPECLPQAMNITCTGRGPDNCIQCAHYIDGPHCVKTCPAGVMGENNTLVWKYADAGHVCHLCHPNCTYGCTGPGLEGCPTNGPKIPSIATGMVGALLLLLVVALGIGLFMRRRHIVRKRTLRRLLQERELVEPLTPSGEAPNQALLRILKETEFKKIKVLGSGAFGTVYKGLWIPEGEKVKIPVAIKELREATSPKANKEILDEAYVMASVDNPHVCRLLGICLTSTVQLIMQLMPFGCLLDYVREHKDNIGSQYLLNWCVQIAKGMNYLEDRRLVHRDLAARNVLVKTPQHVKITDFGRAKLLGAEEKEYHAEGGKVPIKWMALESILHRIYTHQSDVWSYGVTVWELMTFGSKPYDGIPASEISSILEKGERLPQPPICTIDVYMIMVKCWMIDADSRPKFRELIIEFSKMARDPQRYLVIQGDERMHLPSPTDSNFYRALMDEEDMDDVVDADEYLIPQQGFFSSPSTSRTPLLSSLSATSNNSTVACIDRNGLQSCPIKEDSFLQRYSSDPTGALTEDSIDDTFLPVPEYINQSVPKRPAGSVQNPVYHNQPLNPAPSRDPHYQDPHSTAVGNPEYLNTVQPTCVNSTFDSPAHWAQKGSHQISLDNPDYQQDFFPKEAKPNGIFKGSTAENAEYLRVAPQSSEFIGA
- Protocol: Inhibition of EGFR L858R/T790M biochemical enzymatic activity (HTRF)
- Assay context: EGFR L858R-T790M, 1 mM ATP, 1 h, room temperature, read-out: IC50 (nM) @L858R-T790M
Property label: IC50 (nM)

INSERT INTO assay_data (molecule, quantity_unit, reported_value) VALUES
  ('C[C@@H]1CCCOc2c(cnn2C)-c2cc(cn(C)c2=O)C(=O)Nc2nc3ccc4c(c3n2C1)CCNC4', 'nM', 195);

P = Cn1ncc2c1OCCN1CC3CCC(C3)(C1)n1c(nc3ccc(N4CCC(N5CC(F)C5)CC4)cc31)NC(=O)c1cc-2c(=O)n(C)c1 (single isomer, unassigned) [Example A87B]
Q = Cn1ncc2c1OCCN1CC3CCC(CC3)(C1)n1c(nc3ccc(N4CCOCC4)cc31)NC(=O)c1cc-2c(=O)n(C)c1
R = CN1CCN(c2ccc3nc4n(c3c2)CC2(CCCOc3c(cnn3C)-c3cc(cn(C)c3=O)C(=O)N4)CC2)CC1
-- ask Hello, I need these entries ordered by IC50, highest reading first. Thanks! Your task in answering is to list the labels in the requested order.
-- reply R, Q, P

1 = C[C@@H]1CCCOc2c(cnn2C)-c2cc(cn(C)c2=O)C(=O)Nc2nc3ccc(N4CC5(CCN(C)C5)C4)cc3n2C1
2 = CN1CCC12CCN(c1ccc3nc4n(c3c1)C13CCC(CN(CCOc5c(cnn5C)-c5cc(cn(C)c5=O)C(=O)N4)C1)C3)CC2 (single isomer, unassigned) [Example A67B]
3 = Cn1ncc2c1OCCN1CCCC(C)(C1)n1c(nc3ccc(N4CCOCC4)cc31)NC(=O)c1cc-2c(=O)n(C)c1 (stereo not drawn)
4 = C[C@@H]1CCCNc2c(cnn2C)-c2cc(cn(C)c2=O)C(=O)Nc2nc3ccc(N4CCN(C)CC4)cc3n2C1
-- ask Please rank these molecules by IC50 in descending order. Reply with the item labels sorted in the order that was asked for.
-- reply 4, 3, 1, 2
(4: 4530 nM, 3: 2630 nM, 1: 6.8 nM, 2: 1.1 nM)

1 = Cn1ncc2c1OCCN1CC3CCC(C3)(C1)n1c(nc3cc(Br)ccc31)NC(=O)c1cc-2c(=O)n(C)c1 (stereo not drawn)
2 = CN1CCCC12CN(c1ccc3nc4n(c3c1)C13CCC(CN(CCOc5c(cnn5C)-c5cc(cn(C)c5=O)C(=O)N4)C1)C3)C2 (single isomer, unassigned) [Example A76B]
-- ask I'm curious whether 1 or 2 has the smaller IC50 number. Which is it? When you have decided, please share the label of that item.
-- reply 2
(2: 7 nM, 1: 2610 nM)

###

- Target or test system: EGFR wild type (Homo sapiens)
- Construct: purchased Carna Bio
- Sequence (P00533 25-1210): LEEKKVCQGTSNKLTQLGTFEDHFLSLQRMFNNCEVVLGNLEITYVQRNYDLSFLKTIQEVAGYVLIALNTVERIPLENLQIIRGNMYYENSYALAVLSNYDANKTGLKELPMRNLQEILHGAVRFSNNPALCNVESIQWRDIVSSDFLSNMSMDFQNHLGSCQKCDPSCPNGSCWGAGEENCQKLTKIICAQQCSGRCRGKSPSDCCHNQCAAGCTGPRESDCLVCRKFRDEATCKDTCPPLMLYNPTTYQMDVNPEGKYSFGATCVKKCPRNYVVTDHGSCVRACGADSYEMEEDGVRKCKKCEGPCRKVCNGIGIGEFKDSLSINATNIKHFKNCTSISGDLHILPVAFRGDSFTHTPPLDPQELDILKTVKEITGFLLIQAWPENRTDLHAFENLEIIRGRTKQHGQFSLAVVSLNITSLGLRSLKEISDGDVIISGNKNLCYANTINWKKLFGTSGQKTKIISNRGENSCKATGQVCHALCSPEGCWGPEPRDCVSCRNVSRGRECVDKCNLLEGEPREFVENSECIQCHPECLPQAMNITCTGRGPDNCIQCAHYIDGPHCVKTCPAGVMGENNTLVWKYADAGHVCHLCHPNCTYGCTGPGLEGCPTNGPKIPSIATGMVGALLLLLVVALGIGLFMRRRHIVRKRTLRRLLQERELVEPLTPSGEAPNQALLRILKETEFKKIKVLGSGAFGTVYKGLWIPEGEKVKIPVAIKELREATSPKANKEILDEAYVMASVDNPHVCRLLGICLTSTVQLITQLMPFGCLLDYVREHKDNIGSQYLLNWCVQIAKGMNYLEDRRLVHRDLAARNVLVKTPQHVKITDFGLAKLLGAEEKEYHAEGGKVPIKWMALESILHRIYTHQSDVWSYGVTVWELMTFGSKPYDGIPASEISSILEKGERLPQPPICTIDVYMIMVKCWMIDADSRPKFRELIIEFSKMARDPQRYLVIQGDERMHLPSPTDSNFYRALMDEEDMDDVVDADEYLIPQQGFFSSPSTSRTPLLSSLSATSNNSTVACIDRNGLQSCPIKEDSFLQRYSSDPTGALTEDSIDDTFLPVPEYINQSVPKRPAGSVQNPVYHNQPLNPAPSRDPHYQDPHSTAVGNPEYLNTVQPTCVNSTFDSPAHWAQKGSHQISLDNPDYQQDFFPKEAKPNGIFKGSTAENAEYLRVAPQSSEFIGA
- Protocol: Inhibition of EGFR wild type biochemical enzymatic activity (HTRF)
- Assay context: EGFR WT, 1 mM ATP, 1 h, room temperature, read-out: IC50 (nM) @WT
Property label: IC50 (nM)

Field: example entries. Status: answers known.
INSERT INTO assay_data (molecule, reported_value) VALUES
  ('C[C@@H]1CCCOc2c(cnn2C)-c2cc(cn(C)c2=O)C(=O)Nc2nc3ccc(N4CCC(N(C)C)C(F)C4)cc3n2C1 (some centres unmarked)', 159),
  ('CN(C)C1CCN(c2ccc3nc4n(c3c2)C23CCC(CN(CCOc5c(cnn5C)-c5cc(cn(C)c5=O)C(=O)N4)C2)C3)CC1 (single isomer, unassigned) [Example A64B]', 3.6),
  ('C[C@@H]1CCCOc2c(cnn2C)-c2cc(cn(C)c2=O)C(=O)Nc2nc3ccc(N4CCNCC4)cc3n2C1', 103),
  ('Cn1ncc2c1OCCN1CC3CCC(C3)(C1)n1c(nc3ccc(N4CCC(N5CCOCC5)C4)cc31)NC(=O)c1cc-2c(=O)n(C)c1 (single isomer, unassigned) [Example A104B]', 937),
  ('CN1CCN(C2CCN(c3ccc4nc5n(c4c3)C34CCC(CN(CCOc6c(cnn6C)-c6cc(cn(C)c6=O)C(=O)N5)C3)C4)CC2)CC1 (single isomer, unassigned) [Example A106B]', 4.1),
  ('CN(C)CCN(C)c1ccc2nc3n(c2c1)C12CCC(CN(CCOc4c(cnn4C)-c4cc(cn(C)c4=O)C(=O)N3)C1)C2 (single isomer, unassigned) [Example A85B]', 84),
  ('CN(C)[C@H]1CCN(c2ccc3nc4n(c3c2)C23CCC(CN(CCOc5c(cnn5C)-c5cc(cn(C)c5=O)C(=O)N4)C2)C3)C1 (single isomer, unassigned) [Example A66B]', 62),
  ('CN(C)C1CN(c2ccc3nc4n(c3c2)C23CCC(CN(CCOc5c(cnn5C)-c5cc(cn(C)c5=O)C(=O)N4)C2)C3)CC1F (single isomer, unassigned) [Example A84C]', 57),
  ('C[C@@H]1CCCOc2c(cnn2C)-c2cc(cn(C)c2=O)C(=O)Nc2nc3ccc(N4CCOCC4)cc3n2C1', 1090),
  ('CN1CCN(C2CN(c3ccc4nc5n(c4c3)C34CCC(CN(CCOc6c(cnn6C)-c6cc(cn(C)c6=O)C(=O)N5)C3)C4)C2)CC1 (single isomer, unassigned) [Example A70B]', 19);

1 = C[C@@H]1CCCOc2c(cnn2C2CC2)-c2cc(cn(C)c2=O)C(=O)Nc2nc3ccc(N4CCN(C)CC4)cc3n2C1
2 = CN1CC2CN(c3ccc4nc5n(c4c3)C34CCC(CN(CCOc6c(cnn6C)-c6cc(cn(C)c6=O)C(=O)N5)C3)C4)CC2C1 (single isomer, unassigned) [Example A68B]
3 = CN1CC2CC1CN2c1ccc2nc3n(c2c1)C12CCC(CN(CCOc4c(cnn4C)-c4cc(cn(C)c4=O)C(=O)N3)C1)C2 (single isomer, unassigned) [Example A105B]
4 = C[C@@H]1CCCOc2c(cnn2C)-c2cc(cn(C)c2=O)C(=O)Nc2nc3ccc(N4CCC(N(C)C)C(F)(F)C4)cc3n2C1 (some centres unmarked)
-- ask Hey, quick one: sort these by IC50, low to high? The response must list the labels following the requested ordering.
-- reply 2, 3, 1, 4

###

- Target or test system: EGFR (d746-750 C797S) (Homo sapiens, UniProt P00533, C797S/DEL746-750)
- Construct: purchased signalchem
- Sequence (P00533 with tags, fused parts or gaps DEL746-750/C797S limits assumed): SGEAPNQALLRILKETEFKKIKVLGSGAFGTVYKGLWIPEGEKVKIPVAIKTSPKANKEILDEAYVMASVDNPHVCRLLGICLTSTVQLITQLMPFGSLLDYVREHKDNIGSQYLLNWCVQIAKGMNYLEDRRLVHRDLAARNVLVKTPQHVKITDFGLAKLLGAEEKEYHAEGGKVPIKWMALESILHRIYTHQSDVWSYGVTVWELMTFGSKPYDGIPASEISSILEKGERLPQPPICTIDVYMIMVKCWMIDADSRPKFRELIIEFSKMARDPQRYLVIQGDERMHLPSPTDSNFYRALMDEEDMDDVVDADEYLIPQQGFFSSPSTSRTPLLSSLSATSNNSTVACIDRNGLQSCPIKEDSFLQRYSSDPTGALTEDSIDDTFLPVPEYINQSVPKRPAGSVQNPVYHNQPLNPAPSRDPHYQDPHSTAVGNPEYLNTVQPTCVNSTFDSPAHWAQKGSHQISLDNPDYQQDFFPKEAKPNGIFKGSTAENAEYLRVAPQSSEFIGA
- Protocol: Inhibition of EGFR (d746-750 C797S) biochemical enzymatic activity (HTRF)
- Assay context: EGFR Del19-C797S, 1 mM ATP, 1 h, room temperature, read-out: IC50 (nM) @Del19-C797S
- Experimental: Biological Example 1: Inhibition of EGFR WT and Mutant Biochemical Enzymatic Activity The inhibition potency of compounds against these enzymes was assessed using Homogenous Time Resolved Fluorescence approach (HTRF, CisBio. Cat No. 62TKOPEJ). Inhibitory effects of the compounds were determined by measuring the enzymatic activity of EGFR enzyme phosphorylates 1 μM TK Substrate-biotin in the presence of 1 mM adenosine-5′-triphosphate (ATP) and varying concentrations of the test compound. […]
Property label: IC50 (nM)

These solved cases illustrate the format of a correct answer.
INSERT INTO results (molecule, reported_value) VALUES
  ('Cn1ncc2c1OCCN1CC3CCC(C3)(C1)n1c(nc3ccc(N4CCC(N5CC(F)C5)C4)cc31)NC(=O)c1cc-2c(=O)n(C)c1 (single isomer, unassigned) [Example A94B1]', 3.7),
  ('C[C@@H]1CCCOc2c(cnn2C)-c2cc(cn(C)c2=O)C(=O)Nc2nc3ccc(N4CCNCC4)cc3n2C1 [Example A55]', 1.8),
  ('C[C@@H]1CCCOc2c(cnn2C)-c2cc(cn(C)c2=O)C(=O)Nc2nc3ccc(N4CC5(CCN(C)C5)C4)cc3n2C1 [Example A42]', 2.5),
  ('CN(C)C1CCN(c2ccc3nc4n(c3c2)C23CCC(CN(CCOc5c(cnn5C)-c5cc(cn(C)c5=O)C(=O)N4)C2)C3)CC1(F)F (single isomer, unassigned) [Example A97A]', 850),
  ('Cn1ncc2c1OCCN1CC3CCC(CC3)(C1)n1c(nc3ccc(N4CCOCC4)cc31)NC(=O)c1cc-2c(=O)n(C)c1 [Example A74]', 23),
  ('Cn1ncc2c1OCCN(CC(F)(F)F)CCn1c(nc3ccccc31)NC(=O)c1cc-2c(=O)n(C)c1 [Example A1]', 53),
  ('C[C@@H]1CCCOc2c(cnn2C)-c2cc(cn(C)c2=O)C(=O)Nc2nc3ccc(N4CCN(C(=O)OC(C)(C)C)CC4)cc3n2C1 [Example A54]', 41),
  ('CN1CCOC2(C1)CN(c1ccc3nc4n(c3c1)C13CCC(CN(CCOc5c(cnn5C)-c5cc(cn(C)c5=O)C(=O)N4)C1)C3)C2 (single isomer, unassigned) [Example A86B]', 3.9),
  ('Cn1ncc2c1OCCN1CC3CCC(C3)(C1)n1c(nc3ccc(N4CCN(C5CC5)CC4)cc31)NC(=O)c1cc-2c(=O)n(C)c1 (single isomer, unassigned) [Example A83A]', 577),
  ('COCCN(C)c1ccc2nc3n(c2c1)C12CCC(CN(CCOc4c(cnn4C)-c4cc(cn(C)c4=O)C(=O)N3)C1)C2 (single isomer, unassigned) [Example A90B]', 3.5);

P = C[C@@H]1CCCOc2c(cnn2C)-c2cc(cn(C)c2=O)C(=O)Nc2nc3ccc(N(C)CCN(C)C)cc3n2C1 [Example A36]
Q = Cn1ncc2c1OCCN1CC3CCC(C3)(C1)n1c(nc3ccc(N4CCC(N5CC(F)C5)CC4)cc31)NC(=O)c1cc-2c(=O)n(C)c1 (single isomer, unassigned) [Example A87B]
R = CN1CC2CC1CN2c1ccc2nc3n(c2c1)C12CCC(CN(CCOc4c(cnn4C)-c4cc(cn(C)c4=O)C(=O)N3)C1)C2 (single isomer, unassigned) [Example A105A]
S = C[C@@H]1CCCOc2c(cnn2C)-c2cc(cn(C)c2=O)C(=O)Nc2nc3ccc(N4CCC5(CCN(C)C5)CC4)cc3n2C1 [Example A35]
T = CN1CCC2(CN(c3ccc4nc5n(c4c3)C34CCC(CN(CCOc6c(cnn6C)-c6cc(cn(C)c6=O)C(=O)N5)C3)C4)C2)C(F)(F)C1 (single isomer, unassigned) [Example A91A]
-- ask I would appreciate it if you could sort these 5 molecules by IC50, starting from the smallest number. Use the labels to give the requested order.
-- reply S, P, Q, R, T
(S: 0.84 nM, P: 2.1 nM, Q: 4.1 nM, R: 330 nM, T: 1650 nM)
